# experimental_system: Methyl-CpG-binding domain protein 4 (Homo sapiens) (UniProt O95243);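 further: MBD4 activity read as fluorescence at 594 nm from cleavage and release of a quenched duplex DNA oligonucleotide, with APE1 coupled to incise the strand and raise turnover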
# Sequence (O95243 whole entry, the tested form may be a part): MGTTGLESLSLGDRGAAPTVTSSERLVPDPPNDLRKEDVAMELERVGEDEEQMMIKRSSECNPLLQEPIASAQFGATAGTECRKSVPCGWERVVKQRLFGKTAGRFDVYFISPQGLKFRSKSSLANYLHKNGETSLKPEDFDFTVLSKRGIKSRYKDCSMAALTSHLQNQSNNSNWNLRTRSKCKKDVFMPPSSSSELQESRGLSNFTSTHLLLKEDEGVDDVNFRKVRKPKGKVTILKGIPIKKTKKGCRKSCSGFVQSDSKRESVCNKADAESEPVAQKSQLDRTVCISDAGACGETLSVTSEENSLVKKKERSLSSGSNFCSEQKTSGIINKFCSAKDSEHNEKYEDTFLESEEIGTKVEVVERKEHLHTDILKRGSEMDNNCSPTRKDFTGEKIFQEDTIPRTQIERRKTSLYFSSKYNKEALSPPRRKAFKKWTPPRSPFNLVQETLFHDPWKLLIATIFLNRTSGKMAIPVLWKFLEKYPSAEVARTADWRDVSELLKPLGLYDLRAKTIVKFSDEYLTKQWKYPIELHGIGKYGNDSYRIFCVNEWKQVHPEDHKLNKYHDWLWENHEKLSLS
# assay_conditions: Compound Concentration 10.0 uM, Hit No
Assign class by inhibition: not lower than 10% means class 1; lower than 10% means class 0.

molecule: FC(F)(F)Oc1ccc(-c2ccc3nnc(C(F)(F)F)n3c2)cc1
class_name: class 0
--
molecule: CCNC(=O)c1cc2c(N3CCOCC3C)ccnc2[nH]1 (stereo not given)
class_name: class 1
--
molecule: O=C1NC(c2ccccn2)Sc2ccccc21 (stereo not given)
class_name: class 1
--
molecule: CN(C)c1ncnc(-c2ccc3nc(Nc4cc(CN5CCN(C(=O)CC(F)(F)F)CC5)ccn4)[nH]c3c2)c1Cl
class_name: class 1
--
molecule: O=C(NNC(=O)c1ccc(CNS(=O)(=O)c2ccc(F)c(Cl)c2)cc1)c1ccccc1
class_name: class 1
--
molecule: CCc1cc2c(cc1CC)CC(NC[C@H](O)c1ccc(O)c3[nH]c(=O)ccc13)C2
class_name: class 1
--
molecule: C=C1/C(=C\C=C2/CCC[C@]3(C)[C@@H]([C@H](C)/C=C/[C@H](C)C(C)C)CC[C@@H]23)C[C@@H](O)C[C@@H]1O
class_name: class 1
--
molecule: CCOc1ccc(S(=O)(=O)Nc2ccc(Cl)cc2C#Cc2cnc(C(=O)O)cc2OC)c2ncccc12
class_name: class 1
--
molecule: O=C1N/C(=N/c2ccccc2F)S/C1=C\c1ccc(C(=O)O)cc1
class_name: class 0
--
molecule: CNC(=O)COc1cc2cc(Nc3nc(N4CCC(C(=O)N(C)C)CC4)ncc3Cl)cc(OC)c2n(C)c1=O
class_name: class 1
--
molecule: CCC(=O)NCC[C@@H]1CCc2ccc3c(c21)CCO3
class_name: class 0
--
molecule: COc1ccc(Br)cc1S(=O)(=O)NC(=O)/C=C/c1ccccc1Cc1ccc2ccccc2c1
class_name: class 1
--
molecule: C=CC(=O)Nc1ccc2[nH]c(=O)n(C3CCN(C(=O)c4ccc(-c5nc6cc[nH]c(=O)c6cc5-c5ccccc5)cc4)CC3)c2c1
class_name: class 0
--
molecule: Cc1cc(OCC(=O)O)cc(C)c1Cc1ccc(O)c(C(C)C)c1
class_name: class 1
--
molecule: CC(C)(C)OC(=O)N1CCCC1CNC1CCC(c2cc(F)ccc2F)(S(=O)(=O)c2ccc(Cl)cc2)CC1 (stereo not given)
class_name: class 1
--
molecule: CCN(Cc1ccncc1)C(=O)C(CO)c1ccccc1 (stereo not given)
class_name: class 0
--
molecule: NC(=O)[C@@H]1CCCN1C(=O)[C@H](Cc1c[nH]cn1)NC(=O)[C@@H]1CCC(=O)N1
class_name: class 0
--
molecule: CC(=O)Nc1cccc2c1c(Sc1ccc(Cl)cc1)c(C)n2CC(=O)O
class_name: class 1
--
molecule: COc1ccc(Cl)cc1[C@]1(F)C(=O)Nc2cc(C(F)(F)F)ccc21
class_name: class 0
--
molecule: CC(C)(C)NCC(O)COc1cccc2[nH]c(=O)[nH]c12 (stereo not given)
class_name: class 1

* * *

# experimental_system: G/T mismatch-specific thymine DNA glycosylase (Homo sapiens)
# assay_conditions: Compound Concentration 10.0 uM, Hit No

molecule: CCCCCCCC/C=C\CCCCCCCC(=O)NCc1ccc(O)c(OC)c1
experimental_system: G/T mismatch-specific thymine DNA glycosylase (Homo sapiens)
inhibition / %: 13.7
--
molecule: CC(C)S(=O)(=O)c1ccc2nccc(Nc3ccc4scnc4c3)c2c1
experimental_system: G/T mismatch-specific thymine DNA glycosylase (Homo sapiens)
inhibition / %: 49.5
--
molecule: COc1ccc(CC(=O)NC(N/C(=N/C#N)Nc2cccc3ncccc23)C(C)(C)C)cc1OC (centres undefined)
experimental_system: G/T mismatch-specific thymine DNA glycosylase (Homo sapiens)
inhibition / %: 7.3
--
molecule: COc1cc2nc(N3CCN(C(=O)c4ccco4)CC3)nc(N)c2cc1OC
experimental_system: G/T mismatch-specific thymine DNA glycosylase (Homo sapiens)
inhibition / %: 4.76
--
molecule: C[C@H](c1ccc(F)cc1)N(Cc1cccc(C(=O)O)c1)C(=O)c1cnc2ccccc2c1
experimental_system: G/T mismatch-specific thymine DNA glycosylase (Homo sapiens)
inhibition / %: 99.9
--
molecule: C[C@H](NC(=O)c1c(C(F)F)nn(C)c1Oc1cccc(C(F)(F)F)c1)c1ccc(C(=O)O)cc1
experimental_system: G/T mismatch-specific thymine DNA glycosylase (Homo sapiens)
inhibition / %: 11.8
--
molecule: Cc1nc(C#Cc2ccnc(Cl)c2)c(C)n1-c1ccc(OC(F)(F)F)cc1
experimental_system: G/T mismatch-specific thymine DNA glycosylase (Homo sapiens)
inhibition / %: 20.9
--
molecule: C=C1/C(=C\C=C2/CCC[C@]3(C)[C@@H]([C@H](C)/C=C/[C@H](C)C(C)C)CC[C@@H]23)C[C@@H](O)C[C@@H]1O
experimental_system: G/T mismatch-specific thymine DNA glycosylase (Homo sapiens)
inhibition / %: 47.8
--
molecule: NC(=O)[C@@H]1CCCN1C(=O)[C@H](Cc1c[nH]cn1)NC(=O)[C@@H]1CCC(=O)N1
experimental_system: G/T mismatch-specific thymine DNA glycosylase (Homo sapiens)
inhibition / %: 10.8
--
molecule: O=S1(=O)NCN(C2CC2)c2ccc(F)cc21
experimental_system: G/T mismatch-specific thymine DNA glycosylase (Homo sapiens)
inhibition / %: 10.8
--
molecule: C=CC(=O)Nc1cccc(C(=O)Nc2ccc(Nc3cc(-c4[nH]c(S)nc4C)ccn3)cc2)c1
experimental_system: G/T mismatch-specific thymine DNA glycosylase (Homo sapiens)
inhibition / %: 102
--
molecule: CN(C)C(=O)c1sc2nc(N3CCC(S(C)(=O)=O)CC3)cc(C(F)(F)F)c2c1N
experimental_system: G/T mismatch-specific thymine DNA glycosylase (Homo sapiens)
inhibition / %: -5.21
--
molecule: CS(=O)(=O)c1ccc(C(=O)Nc2ccc(Cl)c(-c3ccccn3)c2)c(Cl)c1
experimental_system: G/T mismatch-specific thymine DNA glycosylase (Homo sapiens)
inhibition / %: 6.01
--
molecule: NS(=O)(=O)c1cc(NC(=O)Cc2ccccc2)ccc1Oc1cccc(Cl)c1
experimental_system: G/T mismatch-specific thymine DNA glycosylase (Homo sapiens)
inhibition / %: 87.5
--
molecule: COc1cccc([C@@H](C)NCCCc2ccccc2Cl)c1
experimental_system: G/T mismatch-specific thymine DNA glycosylase (Homo sapiens)
inhibition / %: 6.54
--
molecule: Fc1cccc(/C=N/N=C/c2cccc(F)c2)c1
experimental_system: G/T mismatch-specific thymine DNA glycosylase (Homo sapiens)
inhibition / %: 5.75
--
molecule: CC[C@@H]1CN(C(=O)NCC(F)(F)F)C[C@@H]1c1cnc2cnc3[nH]ccc3n12
experimental_system: G/T mismatch-specific thymine DNA glycosylase (Homo sapiens)
inhibition / %: 36.4
--
molecule: COc1ccccc1S(=O)(=O)Nc1ccc(C)cc1Oc1ccc2c(N)nccc2c1
experimental_system: G/T mismatch-specific thymine DNA glycosylase (Homo sapiens)
inhibition / %: 9.87
--
molecule: COc1ccccc1-n1nc(C2CC(C)(C)OC(C)(C)C2)cc1-c1ccc(Cl)cc1
experimental_system: G/T mismatch-specific thymine DNA glycosylase (Homo sapiens)
inhibition / %: -6.29
--
molecule: CCCCN(Cc1ccccc1)C(=O)c1ccc(S(=O)(=O)Nc2ccccc2)cc1
experimental_system: G/T mismatch-specific thymine DNA glycosylase (Homo sapiens)
inhibition / %: 61.1
--
molecule: N=C(N)SCCc1c[nH]cn1
experimental_system: G/T mismatch-specific thymine DNA glycosylase (Homo sapiens)
inhibition / %: -1.52
--
molecule: Cc1ccccc1N1CCN(S(=O)(=O)C[C@]23CC[C@H](C[C@@H]2NC(=O)[C@@H](N)CCS(C)(=O)=O)C3(C)C)CC1
experimental_system: G/T mismatch-specific thymine DNA glycosylase (Homo sapiens)
inhibition / %: -7.58
--
molecule: Cn1c(C2(NC(=O)c3ccc4c(C5CCCC5)c(-c5ncc(Br)cn5)n(C)c4c3)CCC2)nc2ccc(/C=C/C(=O)O)cc21
experimental_system: G/T mismatch-specific thymine DNA glycosylase (Homo sapiens)
inhibition / %: 101
--
molecule: CCCCC#Cc1nc(NC)c2ncn([C@@H]3O[C@H](CO)[C@@H](O)[C@H]3O)c2n1
experimental_system: G/T mismatch-specific thymine DNA glycosylase (Homo sapiens)
inhibition / %: -7.72
--
molecule: CC(=O)c1ccc2c(c1)[C@@H]1C=CC[C@@H]1[C@H](c1cc3c(cc1Br)OCO3)N2
experimental_system: G/T mismatch-specific thymine DNA glycosylase (Homo sapiens)
inhibition / %: 13.5
--
molecule: N=C(N)NCCSC(=N)N
experimental_system: G/T mismatch-specific thymine DNA glycosylase (Homo sapiens)
inhibition / %: 8.29
--
molecule: Cc1nnc2n1-c1sc(CCC(=O)N3CCOCC3)cc1C(c1ccccc1Cl)=NC2
experimental_system: G/T mismatch-specific thymine DNA glycosylase (Homo sapiens)
inhibition / %: 14.6
--
molecule: Cc1nc2ccc(Oc3ccc(F)cc3)cc2c(=O)n1C[C@H]1CCCN(C(C)C)C1
experimental_system: G/T mismatch-specific thymine DNA glycosylase (Homo sapiens)
inhibition / %: -8.54
--
molecule: CC(C)(C)OC(=O)N1CCCC1CNC1CCC(c2cc(F)ccc2F)(S(=O)(=O)c2ccc(Cl)cc2)CC1 (centres undefined)
experimental_system: G/T mismatch-specific thymine DNA glycosylase (Homo sapiens)
inhibition / %: 17.3
--
molecule: N#CN1CC[C@H](C(=O)Nc2nc3c(s2)CN(C(=O)CN=[N+]=[N-])CC3)C1
experimental_system: G/T mismatch-specific thymine DNA glycosylase (Homo sapiens)
inhibition / %: 40.4
--
molecule: O=C1C[C@@H]2OCC=C3CN4CC[C@]56c7ccccc7N1[C@H]5[C@H]2[C@H]3C[C@H]46
experimental_system: G/T mismatch-specific thymine DNA glycosylase (Homo sapiens)
inhibition / %: 11.6
--
molecule: CCC(F)(F)c1cc(N2CCC(S(C)(=O)=O)CC2)nc2sc(C(N)=O)c(N)c12
experimental_system: G/T mismatch-specific thymine DNA glycosylase (Homo sapiens)
inhibition / %: 39.1
--
molecule: COC(=O)C1=C(C)NC(C)=C(C(=O)OCCCN2CCC(c3ccccc3)(c3ccccc3)CC2)[C@H]1c1cccc([N+](=O)[O-])c1
experimental_system: G/T mismatch-specific thymine DNA glycosylase (Homo sapiens)
inhibition / %: 35.3
--
molecule: CN1CCN(c2nc(N)c3ccccc3n2)CC1
experimental_system: G/T mismatch-specific thymine DNA glycosylase (Homo sapiens)
inhibition / %: -3.58
--
molecule: C[C@H](CCC(=O)O)[C@H]1CC[C@H]2[C@@H]3CC[C@@H]4C[C@H](O)CC[C@]4(C)[C@H]3CC[C@]12C
experimental_system: G/T mismatch-specific thymine DNA glycosylase (Homo sapiens)
inhibition / %: 21.8
--
molecule: Nc1nc(NCc2ccccc2)nc(-c2ccccc2CO)n1
experimental_system: G/T mismatch-specific thymine DNA glycosylase (Homo sapiens)
inhibition / %: 52
--
molecule: CC(=O)N1CCC(c2ccc(C(=O)NC(=N)N)cc2C(F)(F)F)CC1
experimental_system: G/T mismatch-specific thymine DNA glycosylase (Homo sapiens)
inhibition / %: 47.6
--
molecule: C[C@H](NC(=O)Cc1ccc(-c2ccc3cccnc3n2)cc1)c1ccc(-c2ccc(F)c(C(F)(F)F)c2)cc1
experimental_system: G/T mismatch-specific thymine DNA glycosylase (Homo sapiens)
inhibition / %: 8.35
--
molecule: C[C@@H](c1cccc(C#N)c1)n1cc(Cl)cc(C(N)=O)c1=N
experimental_system: G/T mismatch-specific thymine DNA glycosylase (Homo sapiens);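 further: human TDG cleavage of quenched duplex DNA oligonucleotides coupled to APE1, strand release read as fluorescence at 594 nm, inhibition of TDG activity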
inhibition / %: 46.5

All figures here come from ChEMBL document CHEMBL5665443.
